Each recorded value in this set is attributed to ChEMBL document CHEMBL3526082.

test: Retention time of the compound in Sprague-Dawley rat bile by UPLC/Q-TOF analysis; assay type: ADME
EXPERIMENTAL READOUT: Retention_time (min)
Answer in min, number only, no unit symbol.

Some solved entries appear below for comparison.
Exercise: Query: Retention_time; subject: CC(CC(=O)CC(CO)C(=O)O)[C@H]1CC(=O)[C@@]2(C)C3=C(C(=O)C[C@]12C)[C@@]1(C)CC(O)C(=O)C(C)(C)[C@@H]1C[C@@H]3O (stereo partly drawn)
Solution: 8

Exercise: Query: Retention_time; subject: CC(CC(=O)CC(C)[C@H]1CC(=O)[C@@]2(C)C3=C(C(=O)C[C@]12C)[C@@]1(C)CCC(=O)C(C)(C)[C@@H]1CC3=O)C(=O)O (stereo partly drawn)
Solution: 11.5

Alright, here's another molecule for you.
Exercise: Query: Retention_time; subject: CC(CC(=O)CC(C)[C@H]1CC(=O)[C@@]2(C)C3=C(C(=O)C[C@]12C)[C@@]1(C)CCC(=O)C(C)(CO)[C@@H]1C[C@@H]3O)C(=O)O (stereo partly drawn)
Solution: 9.2
